B1: X-linked retinitis pigmentosa GTPase regulator (Homo sapiens), Q92834 (parent)
chain: MREPEELMPDSGAVFTFGKSKFAENNPGKFWFKNDVPVHLSCGDEHSAVVTGNNKLYMFGSNNWGQLGLGSKSAISKPTCVKALKPEKVKLAACGRNHTLVSTEGGNVYATGGNNEGQLGLGDTEERNTFHVISFFTSEHKIKQLSAGSNTSAALTEDGRLFMWGDNSEGQIGLKNVSNVCVPQQVTIGKPVSWISCGYYHSAFVTTDGELYVFGEPENGKLGLPNQLLGNHRTPQLVSEIPEKVIQVACGGEHTVVLTENAVYTFGLGQFGQLGLGTFLFETSEPKVIENIRDQTISYISCGENHTALITDIGLMYTFGDGRHGKLGLGLENFTNHFIPTLCSNFLRFIVKLVACGGCHMVVFAAPHRGVAKEIEFDEINDTCLSVATFLPYSSLTSGNVLQRTLSARMRRRERERSPDSFSMRRTLPPIEGTLGLSACFLPNSVFPRCSERNLQESVLSEQDLMQPEEPDYLLDEMTKEAEIDNSSTVESLGETTDILNMTHIMSLNSNEKSLKLSPVQKQKKQQTIGELTQDTALTENDDSDEYEEMSEMKEGKACKQHVSQGIFMTQPATTIEAFSDEEVGNDTGQVGPQADTDGEGLQKEVYRHENNNGVDQLDAKEIEKESDGGHSQKESEAEEIDSEKETKLAEIAGMKDLREREKSTKKMSPFFGNLPDRGMNTESEENKDFVKKRESCKQDVIFDSERESVEKPDSYMEGASESQQGIADGFQQPEAIEFSSGEKEDDEVETDQNIRYGRKLIEQGNEKETKPIISKSMAKYDFKCDRLSEIPEEKEGAEDSKGNGIEEQEVEANEENVKVHGGRKEKTEILSDDLTDKAEDHEFSKTEELKLEDVDEEINAENVESKKKTVGDDESVPTGYHSKTEGAERTNDDSSAETIEKKEKANLEERAICEYNENPKGYMLDDADSSSLEILENSETTPSKDMKKTKKIFLFKRVPSINQKIVKNNNEPLPEIKSIGDQIILKSDNKDADQNHMSQNHQNIPPTNTERRSKSCTIL
partner: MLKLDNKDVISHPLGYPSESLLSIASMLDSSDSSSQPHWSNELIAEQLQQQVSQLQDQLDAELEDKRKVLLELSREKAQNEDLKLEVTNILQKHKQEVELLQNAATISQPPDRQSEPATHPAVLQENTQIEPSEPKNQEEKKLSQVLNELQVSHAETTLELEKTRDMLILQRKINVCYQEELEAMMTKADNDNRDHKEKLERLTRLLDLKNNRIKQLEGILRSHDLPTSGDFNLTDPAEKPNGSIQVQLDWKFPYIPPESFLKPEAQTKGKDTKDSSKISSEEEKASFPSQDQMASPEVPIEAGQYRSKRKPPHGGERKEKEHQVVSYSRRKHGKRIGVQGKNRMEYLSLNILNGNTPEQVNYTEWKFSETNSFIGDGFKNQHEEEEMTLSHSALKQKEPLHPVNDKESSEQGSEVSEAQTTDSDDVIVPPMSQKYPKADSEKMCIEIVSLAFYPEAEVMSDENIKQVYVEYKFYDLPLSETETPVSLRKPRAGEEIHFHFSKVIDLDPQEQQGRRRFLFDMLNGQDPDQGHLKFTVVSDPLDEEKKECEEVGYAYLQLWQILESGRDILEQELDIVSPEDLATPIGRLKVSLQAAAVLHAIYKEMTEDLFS

Variants of: B1
Settings: with RPGRIP1, Q96KN7-4
Readout: effect of a mutation on the interaction

1. Q184H :: with no effect
2. G436D :: with no effect
3. R425K :: with no effect
